The entries below come with measured 100 nM Ag Bound (RU) values attached.
# test system: T1, Macaca fascicularis IL2Rγ extracellular domain expressed with a C-terminal myc-myc-hexahistidine tag (Macaca fascicularis)
# T1 construct: also called mfIL-2Rg-MMH; mfIL-2RG-MMH
# T1 chain: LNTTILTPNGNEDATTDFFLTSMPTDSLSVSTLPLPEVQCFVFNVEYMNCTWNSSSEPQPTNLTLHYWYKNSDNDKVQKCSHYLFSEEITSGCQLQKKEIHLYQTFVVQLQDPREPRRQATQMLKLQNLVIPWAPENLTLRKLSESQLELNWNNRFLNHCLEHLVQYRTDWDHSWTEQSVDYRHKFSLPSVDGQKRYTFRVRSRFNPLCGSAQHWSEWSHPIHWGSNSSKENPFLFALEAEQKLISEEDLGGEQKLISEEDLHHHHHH
# assay: SPR, captured mAb, 25C, dissociation pH 7.4
Unit RU implied. Number only.

Consider the worked cases shown below.
Req: 100 nM Ag Bound (RU) lookup needed for H4H12889P (antibody, human IgG4 S228P, kappa, V domains shown, anti-IL2Rgamma mAb expressed with human IgG4 Fc; also called REGN7257) VH: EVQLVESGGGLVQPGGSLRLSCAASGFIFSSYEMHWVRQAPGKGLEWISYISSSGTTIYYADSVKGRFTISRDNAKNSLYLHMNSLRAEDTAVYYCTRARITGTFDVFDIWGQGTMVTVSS VL: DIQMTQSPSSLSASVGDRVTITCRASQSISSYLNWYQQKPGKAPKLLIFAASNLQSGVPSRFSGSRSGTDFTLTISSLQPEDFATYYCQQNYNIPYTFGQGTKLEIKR , thanks.
Resp: 123

Req: # repeat for H4H12899P (antibody, human IgG4 S228P, kappa, V domains shown, anti-IL2Rgamma mAb expressed with human IgG4 Fc) VH: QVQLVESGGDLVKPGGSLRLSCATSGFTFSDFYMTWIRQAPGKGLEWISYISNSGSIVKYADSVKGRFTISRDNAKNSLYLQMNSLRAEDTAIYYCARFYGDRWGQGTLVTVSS VL: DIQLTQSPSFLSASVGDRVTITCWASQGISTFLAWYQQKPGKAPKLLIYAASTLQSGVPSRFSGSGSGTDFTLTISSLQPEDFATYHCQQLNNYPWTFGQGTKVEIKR
Resp: 117

Req: # repeat for H4H12886P (antibody, human IgG4 S228P, kappa, V domains shown, anti-IL2Rgamma mAb expressed with human IgG4 Fc) VH: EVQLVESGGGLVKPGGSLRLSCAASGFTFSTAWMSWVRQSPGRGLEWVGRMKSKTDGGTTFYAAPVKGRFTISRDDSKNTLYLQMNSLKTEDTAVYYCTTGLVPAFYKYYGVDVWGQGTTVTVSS VL: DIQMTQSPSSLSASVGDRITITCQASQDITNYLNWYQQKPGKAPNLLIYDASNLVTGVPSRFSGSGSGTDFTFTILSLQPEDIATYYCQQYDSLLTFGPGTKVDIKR
Resp: 113

Now look at this one.
Req: 100 nM Ag Bound (RU) lookup needed for H4H12884P (antibody, human IgG4 S228P, kappa, V domains shown, anti-IL2Rgamma mAb expressed with human IgG4 Fc) VH: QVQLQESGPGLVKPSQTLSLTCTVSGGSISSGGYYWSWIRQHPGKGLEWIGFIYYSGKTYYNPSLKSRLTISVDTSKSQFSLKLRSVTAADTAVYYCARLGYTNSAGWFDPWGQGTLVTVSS VL: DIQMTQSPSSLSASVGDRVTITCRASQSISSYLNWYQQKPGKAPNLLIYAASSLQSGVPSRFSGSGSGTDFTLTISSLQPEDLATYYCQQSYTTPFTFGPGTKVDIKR , thanks.
Resp: 160
